TARGET OF ASSAY: β-amyloid Aβ42 (aggregates) (Homo sapiens)
Construct: synthetic Aβ42 peptide, aggregated (fibrils)
Sequence (P05067 672-713 limits assumed): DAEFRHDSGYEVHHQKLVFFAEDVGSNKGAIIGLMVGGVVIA
EXPERIMENT: fluorescence saturation titration of probe with […] aggregated Aβ[…] in PBS
CONDITION PARAMETERS: read-out: Probe 3

- COMPOUND: "CN(C)c1ccc(/C=C/n2ncc3c(c2=O)Oc2ccc(C=C(C#N)C(=O)O)cc2O3)cc1 [compound 3, probe 3]"
  U: "nM"
  Kd: 350

Reference for the values: paper PMC5848141
